target_or_test_system: hMMP-8 (Homo sapiens)
Sequence (P22894 101-467): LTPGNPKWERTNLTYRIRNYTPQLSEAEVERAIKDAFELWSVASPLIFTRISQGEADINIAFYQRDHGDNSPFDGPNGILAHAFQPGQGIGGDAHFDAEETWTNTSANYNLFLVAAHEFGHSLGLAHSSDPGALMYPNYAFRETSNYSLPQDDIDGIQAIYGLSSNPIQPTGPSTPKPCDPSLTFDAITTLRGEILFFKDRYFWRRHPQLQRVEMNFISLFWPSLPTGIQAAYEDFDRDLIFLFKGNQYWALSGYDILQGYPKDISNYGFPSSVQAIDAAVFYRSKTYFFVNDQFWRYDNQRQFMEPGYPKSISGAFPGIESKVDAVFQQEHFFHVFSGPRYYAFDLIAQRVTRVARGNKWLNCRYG
property_label: pKi
Answers are plain numbers, as −log10 of the molar value.

Asked: Name the recorded pKi for NC(=O)[C@H](CCC(=O)O)NC(=O)[C@H](CCC(=O)O)NC(=O)[C@H](Cc1cc(-c2ccc(-c3cccc(Cl)c3)cc2)no1)CP(=O)(O)c1ccc(Br)cc1 [RXP470.1] .
Given back: 6.92

---

target_or_test_system: hMMP-13 (Homo sapiens)
property_label: Ki
// return the numeric value with its unit appended

Asked: Name the recorded Ki for NC(=O)[C@H](CCC(=O)O)NC(=O)[C@H](CCC(=O)O)NC(=O)[C@H](Cc1cc(-c2ccc(-c3cccc(Cl)c3)cc2)no1)CP(=O)(O)c1ccc(Br)cc1 [RXP470.1] .
Given back: 11 nM

---

target_or_test_system: hMMP-3 (Homo sapiens, UniProt P08254)
Sequence (P08254 100-477): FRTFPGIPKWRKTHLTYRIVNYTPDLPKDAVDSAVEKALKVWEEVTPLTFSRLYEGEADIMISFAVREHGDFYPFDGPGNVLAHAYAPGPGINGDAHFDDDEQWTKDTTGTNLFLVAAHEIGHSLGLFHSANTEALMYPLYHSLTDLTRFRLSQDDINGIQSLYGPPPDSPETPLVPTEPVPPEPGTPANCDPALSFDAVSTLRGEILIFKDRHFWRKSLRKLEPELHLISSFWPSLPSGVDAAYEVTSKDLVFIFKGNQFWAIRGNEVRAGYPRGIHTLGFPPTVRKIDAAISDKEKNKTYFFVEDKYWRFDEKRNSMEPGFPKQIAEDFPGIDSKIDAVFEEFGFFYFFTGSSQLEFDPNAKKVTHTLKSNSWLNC
property_label: Ki (nM)
One number for each entry, in nM.

Asked: What reported Ki corresponds to NC(=O)[C@H](CCC(=O)O)NC(=O)[C@H](CCC(=O)O)NC(=O)[C@H](Cc1cc(-c2ccc(-c3cccc(Cl)c3)cc2)no1)CP(=O)(O)c1ccc(Br)cc1 [RXP470.1] on hMMP-3 (Homo sapiens, UniProt P08254)?
Given back: 80

---

target_or_test_system: hMMP-12 (Homo sapiens, UniProt P39900)
Sequence (P39900 106-470): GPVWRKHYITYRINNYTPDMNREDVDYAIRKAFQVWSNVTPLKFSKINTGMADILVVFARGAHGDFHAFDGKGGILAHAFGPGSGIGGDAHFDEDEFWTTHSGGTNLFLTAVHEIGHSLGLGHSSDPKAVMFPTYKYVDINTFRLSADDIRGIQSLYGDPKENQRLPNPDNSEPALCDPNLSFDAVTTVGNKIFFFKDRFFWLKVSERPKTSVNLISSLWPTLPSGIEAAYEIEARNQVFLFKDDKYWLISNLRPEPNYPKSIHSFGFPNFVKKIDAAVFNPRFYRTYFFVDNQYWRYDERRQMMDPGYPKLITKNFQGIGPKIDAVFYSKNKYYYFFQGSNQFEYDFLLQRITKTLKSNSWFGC
property_label: Ki (nM)
One number for each entry, in nM.

Asked: Name the recorded Ki for NC(=O)[C@H](CCC(=O)O)NC(=O)[C@H](CCC(=O)O)NC(=O)[C@H](Cc1cc(-c2ccc(-c3cccc(Cl)c3)cc2)no1)CP(=O)(O)c1ccc(Br)cc1 [RXP470.1] .
Given back: 0.26

---

target_or_test_system: hMMP-2 (Homo sapiens)
Sequence (P08253 110-660): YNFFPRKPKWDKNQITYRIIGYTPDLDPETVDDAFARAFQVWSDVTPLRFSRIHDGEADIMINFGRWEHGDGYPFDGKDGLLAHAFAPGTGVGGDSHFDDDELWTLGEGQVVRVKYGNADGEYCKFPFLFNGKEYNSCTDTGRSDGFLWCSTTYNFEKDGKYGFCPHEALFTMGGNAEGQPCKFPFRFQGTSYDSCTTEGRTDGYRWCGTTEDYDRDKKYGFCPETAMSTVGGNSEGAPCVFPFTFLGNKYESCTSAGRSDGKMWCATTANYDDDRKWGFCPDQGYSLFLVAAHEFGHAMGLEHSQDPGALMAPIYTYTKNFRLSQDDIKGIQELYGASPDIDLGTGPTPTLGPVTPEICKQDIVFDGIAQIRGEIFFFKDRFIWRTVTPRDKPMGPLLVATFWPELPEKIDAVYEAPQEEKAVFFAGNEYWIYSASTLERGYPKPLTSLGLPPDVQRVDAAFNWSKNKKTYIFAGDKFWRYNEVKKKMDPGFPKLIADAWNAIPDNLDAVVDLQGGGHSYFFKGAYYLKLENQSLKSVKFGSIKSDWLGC
property_label: Ki (nM)
Give bare numbers, in nM.

Asked: Name the recorded Ki for `NC(=O)[C@H](CCC(=O)O)NC(=O)[C@H](CCC(=O)O)NC(=O)[C@H](Cc1cc(-c2ccc(-c3cccc(Cl)c3)cc2)no1)CP(=O)(O)c1ccc(Br)cc1` .
Given back: 52

---

target_or_test_system: UniProtKB P14780
Sequence (P14780 94-707): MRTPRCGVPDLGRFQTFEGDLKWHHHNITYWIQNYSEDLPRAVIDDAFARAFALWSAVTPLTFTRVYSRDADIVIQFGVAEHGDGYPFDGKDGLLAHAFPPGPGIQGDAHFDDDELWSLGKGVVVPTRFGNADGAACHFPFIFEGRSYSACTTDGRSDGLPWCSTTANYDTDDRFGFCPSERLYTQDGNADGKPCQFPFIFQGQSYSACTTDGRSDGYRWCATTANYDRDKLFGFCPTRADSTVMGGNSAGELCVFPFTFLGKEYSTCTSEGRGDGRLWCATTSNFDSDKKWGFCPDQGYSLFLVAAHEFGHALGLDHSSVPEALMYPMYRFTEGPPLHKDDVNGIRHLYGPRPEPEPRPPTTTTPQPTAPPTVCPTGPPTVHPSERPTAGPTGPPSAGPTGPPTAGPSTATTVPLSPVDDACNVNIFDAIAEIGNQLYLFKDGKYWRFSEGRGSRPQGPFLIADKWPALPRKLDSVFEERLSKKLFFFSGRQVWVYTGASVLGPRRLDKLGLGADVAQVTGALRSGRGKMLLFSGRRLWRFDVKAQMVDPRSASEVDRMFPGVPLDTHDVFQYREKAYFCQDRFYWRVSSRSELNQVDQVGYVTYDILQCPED
property_label: pKi
Numbers only, as −log10 of the molar value.

Asked: Name the recorded pKi for NC(=O)[C@H](CCC(=O)O)NC(=O)[C@H](CCC(=O)O)NC(=O)[C@H](Cc1cc(-c2ccc(-c3cccc(Cl)c3)cc2)no1)CP(=O)(O)c1ccc(Br)cc1 [RXP470.1] .
Given back: 6.77

Value source: paper PMC6803849
